system: P12-ICHIKAWA; experiment: selective drug sensitivity score (sDSS, relative to normal bone marrow) (sDSS (score)); higher = more potent and effective on the cell line relative to normal bone marrow cells; conditions: 72 h;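 further: ALL cell lines in 384-well plates, five doses spanning 10,000-fold, each plate scaled between vehicle and 100 µmol/L benzalkonium chloride controls, sDSS an adapted area-under-curve metric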
Overview of reported selective drug sensitivity score across a group of compounds:
Write the value as a bare number.

• O=C(Nc1cnn2ccc(N3CCC[C@@H]3c3cc(F)ccc3F)nc12)N1CC[C@H](O)C1 [Larotrectinib] (top concentration 1000 nM) = -0.62
• COc1cc(C)c(/C=C/C(C)=C/C=C/C(C)=C/C(=O)O)c(C)c1C [Acitretin] (top concentration 10000 nM) = -0.8
• O=C(/C=C\n1cnc(-c2cc(C(F)(F)F)cc(C(F)(F)F)c2)n1)NNc1cnccn1 [Selinexor] (top concentration 10000 nM) = 10.1

Observed selective drug sensitivity score, P12-ICHIKAWA, CCCCOc1nc(N)c2c(n1)N(Cc1cccc(CN3CCCC3)c1)CC(=O)N2 [Vesatolimod] (top concentration 10000 nM) : -3.52

Observed selective drug sensitivity score, P12-ICHIKAWA, Cn1cnc2c(F)c(Nc3ccc(Br)cc3Cl)c(C(=O)NOCCO)cc21 [Selumetinib] (top concentration 10000 nM) : 0.3

Observed selective drug sensitivity score, P12-ICHIKAWA, Cc1nc2cccc(N)c2c(=O)n1C1CCC(=O)NC1=O (stereo not drawn) [Avadomide (CC122)] (top concentration 10000 nM) : 0

Observed selective drug sensitivity score, P12-ICHIKAWA, C[C@@H]1CN(C(=O)c2ccc(NC(=O)c3cc(O[C@H](C)c4c(Cl)ccc(F)c4Cl)c(N)nn3)cc2)C[C@H](C)N1 [Ensartinib] (top concentration 1000 nM) : -2.54

Observed selective drug sensitivity score, P12-ICHIKAWA, CCn1c(-c2nonc2N)nc2c(C#CC(C)(C)O)ncc(OC[C@H]3CCCNC3)c21 (top concentration 10000 nM) : 4.68

====

Overview of reported selective drug sensitivity score across a group of compounds:
test system: KASUMI-2; test: selective drug sensitivity score (sDSS, relative to normal bone marrow) (sDSS (score)); higher = more potent and effective on the cell line relative to normal bone marrow cells; settings: 72 h
Write the value as a bare number.

Examples with answers:
- O=C(Nc1cc(Cl)cc2c1[nH]c1cnccc12)c1cccnc1 [PS-1145] (top concentration 25000 nM): -0.46
- CNC(=O)c1cccc(-c2ccc3c(N4CCOC[C@@H]4C)nc(N4CCOC[C@@H]4C)nc3n2)c1 [Vistusertib] (top concentration 10000 nM): 15
- O=C(Nc1cnn2ccc(N3CCC[C@@H]3c3cc(F)ccc3F)nc12)N1CC[C@H](O)C1 [Larotrectinib] (top concentration 1000 nM): -0.62
- O=c1ncn2nc(Sc3ccc(F)cc3F)ccc2c1-c1c(Cl)cccc1Cl [Neflamapimod] (top concentration 10000 nM): 0
- Nc1ncnc2c1nc(N)n2[C@@H]1O[C@H](CO)[C@@H](O)[C@H]1O [8-amino-adenosine] (top concentration 50000 nM): 6.08

Lab note: next compound to report on.
// COCC[n+]1c2c(n(Cc3cnccn3)c1C)C(=O)c1ccccc1C2=O [Sepantronium_bromide] (top concentration 10000 nM) : selective drug sensitivity score value = 19.5

====

test system: KASUMI-2; assay: selective drug sensitivity score (sDSS, relative to normal bone marrow) (sDSS (score)); higher = more potent and effective on the cell line relative to normal bone marrow cells; conditions: 72 h
Overview of reported selective drug sensitivity score across a group of compounds:
Write the value as a bare number.

* Cn1cc(-c2ccc(F)c(C(F)(F)F)c2)nc1C1CCN(c2ncnc3[nH]ncc23)CC1 (top concentration 10000 nM) | 13.3

// Nc1ccn([C@@H]2O[C@H](CO)[C@@H](O)C2(F)F)c(=O)n1 [Gemcitabine] (top concentration 1000 nM) : selective drug sensitivity score value = 15.1

// CCS(=O)(=O)Nc1ccc(Oc2ccc(F)cc2F)c(-c2cn(C)c(=O)c3[nH]ccc23)c1 [Mivebresib] (top concentration 10000 nM) : selective drug sensitivity score value = -14.8

// C[C@@H]1CN(C(=O)c2ccc(NC(=O)c3cc(O[C@H](C)c4c(Cl)ccc(F)c4Cl)c(N)nn3)cc2)C[C@H](C)N1 [Ensartinib] (top concentration 1000 nM) : selective drug sensitivity score value = -1.54

// CNC(=O)c1ccc(C)c(-n2c(C)cc(OCc3ccc(F)cc3F)c(Br)c2=O)c1 (top concentration 1000 nM) : selective drug sensitivity score value = 0

// CC(C)[C@@H](CS(=O)(=O)C(C)C)N1C(=O)[C@@](C)(CC(=O)O)C[C@H](c2cccc(Cl)c2)[C@H]1c1ccc(Cl)cc1 [AMG-232] (top concentration 10000 nM) : selective drug sensitivity score value = 12.3

// Cc1cc(Nc2nc(N[C@@H](C)c3ncc(F)cn3)ncc2Cl)[nH]n1 [AZD1480] (top concentration 1000 nM) : selective drug sensitivity score value = -4.28

// COc1cc(C(=O)O)ccc1NC(=O)[C@@H]1N[C@@H](CC(C)(C)C)[C@](C#N)(c2ccc(Cl)cc2F)[C@H]1c1cccc(Cl)c1F [Idasanutlin] (top concentration 10000 nM) : selective drug sensitivity score value = 18.2

// C[C@@H]1COCCN1c1cc(C2([S@](C)(=N)=O)CC2)nc(-c2cc[nH]c3nccc2-3)n1 [AZD6738] (top concentration 25000 nM) : selective drug sensitivity score value = 1.38

// Cn1cc(-c2[nH]c3cc(NC(=O)[C@H](N)C4CCCCC4)cc4c3c2C=NNC4=O)cn1 (top concentration 10000 nM) : selective drug sensitivity score value = -6.12

// C=CC(=O)Nc1cc(Nc2nccc(-c3cn(C)c4ccccc34)n2)c(OC)cc1N(C)CCN(C)C [Osimertinib] (top concentration 2500 nM) : selective drug sensitivity score value = -3.52

// CCC1(c2ccc(N)cc2)CCC(=O)NC1=O (configuration not stated) [Aminoglutethimide] (top concentration 10000 nM) : selective drug sensitivity score value = 0

====

system: DND-41; assay: selective drug sensitivity score (sDSS, relative to normal bone marrow) (sDSS (score)); higher = more potent and effective on the cell line relative to normal bone marrow cells; conditions: 72 h
property.name: selective drug sensitivity score
Write the value as a bare number.

* CNC(=O)c1ccc(C)c(-n2c(C)cc(OCc3ccc(F)cc3F)c(Br)c2=O)c1 (top concentration 1000 nM) | 0
* CN[C@@H](C)C(=O)N[C@H](C(=O)N1CCC[C@H]1c1nc(C(=O)c2ccc(F)cc2)cs1)C1CCCCC1 [NVP-LCL161] (top concentration 25000 nM) | -2.72
* O=C(O)CCCCC(CCSCc1ccccc1)SCc1ccccc1 (centres undefined) [Devimistat (CPI-613)] (top concentration 10000 nM) | 0.6
* CC[C@@]1(O)C(=O)OCc2c1cc1n(c2=O)Cc2cc3c(CN(C)C)c(O)ccc3nc2-1 [Topotecan] (top concentration 10000 nM) | 21.4
* N#CC1(c2ccc(NC(=O)c3cccnc3NCc3ccncc3)cc2)CCCC1 [Apatinib] (top concentration 10000 nM) | 1

// C=CC(=O)N1CC/C(=C\c2ccc(F)c([N+](=O)[O-])c2)C(=O)/C(=C/c2ccc(F)c([N+](=O)[O-])c2)C1 [VLX1570] (top concentration 10000 nM) : selective drug sensitivity score value = 1.18

// Cc1nc2cccc(N)c2c(=O)n1C1CCC(=O)NC1=O (centres undefined) [Avadomide (CC122)] (top concentration 10000 nM) : selective drug sensitivity score value = 0

// COc1cc(CCc2cc(NC(=O)c3ccc(N4CC(C)NC(C)C4)cc3)n[nH]2)cc(OC)c1 (centres undefined) [AZD4547] (top concentration 1000 nM) : selective drug sensitivity score value = 1.66

====

test system: KARPAS-45; assay: selective drug sensitivity score (sDSS, relative to normal bone marrow) (sDSS (score)); higher = more potent and effective on the cell line relative to normal bone marrow cells; conditions: 72 h
property.name: selective drug sensitivity score
Write the value as a bare number.

- CCN(c1cc(-c2ccc(CN3CCOCC3)cc2)cc(C(=O)NCc2c(C)cc(C)[nH]c2=O)c1C)C1CCOCC1 [Tazemetostat] (top concentration 10000 nM): 1.32
- CONC(=O)c1ccccc1Nc1cc(Nc2cc(C)nn2C(C)C)ncc1Cl (top concentration 1000 nM): -0.94
- COc1cccc2c1C(=O)c1c(O)c3c(c(O)c1C2=O)C[C@@](O)(C(=O)CO)C[C@@H]3O[C@H]1C[C@H](N)[C@@H](O)[C@H](C)O1 [Epirubicin] (top concentration 1000 nM): -0.28
- CCCCOc1nc(N)c2c(n1)N(Cc1cccc(CN3CCCC3)c1)CC(=O)N2 [Vesatolimod] (top concentration 10000 nM): -3.52

// N.N.[Cl][Pt][Cl] [Cisplatin] (top concentration 100000 nM) : selective drug sensitivity score value = 5.84

// Nc1ncnc2c1nc(N)n2[C@@H]1O[C@H](CO)[C@@H](O)[C@H]1O [8-amino-adenosine] (top concentration 50000 nM) : selective drug sensitivity score value = -3.32

// Cc1nc(NC(=O)N2CCC[C@H]2C(N)=O)sc1-c1ccnc(C(C)(C)C(F)(F)F)c1 [Alpelisib] (top concentration 2500 nM) : selective drug sensitivity score value = 0.38

// CC1(C)CCC(CN2CCN(c3ccc(C(=O)NS(=O)(=O)c4ccc(NCC5CCOCC5)c([N+](=O)[O-])c4)c(Oc4cnc5[nH]ccc5c4)c3)CC2)=C(c2ccc(Cl)cc2)C1 [Venetoclax] (top concentration 1000 nM) : selective drug sensitivity score value = 9.5

// CN1CCN(C2CCC(n3cc(-c4ccc(Oc5ccccc5)cc4)c4c(N)ncnc43)CC2)CC1 (configuration not stated) (top concentration 10000 nM) : selective drug sensitivity score value = 4.12
